# Tested System: HIV Env of isolate BJOX009000.02.4 (clade AE) (HIV)
# Method Summary: cell-based or functional assay
Readout: IC50 (µg/ml) with constrains
Record the result as a number with its unit.

Below are worked cases with known answers.
[[record]]
binder = "ePGDM5 (antibody, V domains shown) VH: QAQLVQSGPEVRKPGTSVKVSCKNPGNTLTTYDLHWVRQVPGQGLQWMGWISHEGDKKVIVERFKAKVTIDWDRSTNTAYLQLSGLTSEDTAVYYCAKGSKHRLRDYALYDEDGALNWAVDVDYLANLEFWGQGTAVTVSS VL: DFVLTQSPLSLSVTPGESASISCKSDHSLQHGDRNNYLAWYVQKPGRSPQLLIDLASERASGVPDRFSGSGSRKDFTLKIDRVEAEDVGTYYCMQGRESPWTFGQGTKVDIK"
value_observed = "0.296 µg/mL"

[[record]]
binder = "ePGDM9 (antibody, V domains shown) VH: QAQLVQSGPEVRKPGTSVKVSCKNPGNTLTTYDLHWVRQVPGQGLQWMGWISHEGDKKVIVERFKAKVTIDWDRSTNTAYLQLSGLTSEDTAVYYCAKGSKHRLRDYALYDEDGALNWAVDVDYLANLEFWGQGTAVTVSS VL: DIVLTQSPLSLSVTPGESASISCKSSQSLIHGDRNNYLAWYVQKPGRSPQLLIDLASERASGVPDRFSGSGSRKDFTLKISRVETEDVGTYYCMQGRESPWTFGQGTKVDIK"
value_observed = "0.234 µg/mL"

[[record]]
binder = "PGDM1400 (antibody, V domains shown) VH: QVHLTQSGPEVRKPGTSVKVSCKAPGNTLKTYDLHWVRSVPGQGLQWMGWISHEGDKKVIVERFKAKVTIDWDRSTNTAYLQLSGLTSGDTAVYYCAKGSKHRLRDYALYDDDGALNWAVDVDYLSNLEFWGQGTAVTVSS VL: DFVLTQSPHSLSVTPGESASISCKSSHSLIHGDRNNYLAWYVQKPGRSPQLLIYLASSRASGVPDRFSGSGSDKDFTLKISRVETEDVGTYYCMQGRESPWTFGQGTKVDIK"
value_observed = "1.1 µg/mL"


Could you now consider this next binder?
Prompt: So what does the record say about IC50 (µg/ml) with constrains for ePGDM13 (antibody, V domains shown) VH: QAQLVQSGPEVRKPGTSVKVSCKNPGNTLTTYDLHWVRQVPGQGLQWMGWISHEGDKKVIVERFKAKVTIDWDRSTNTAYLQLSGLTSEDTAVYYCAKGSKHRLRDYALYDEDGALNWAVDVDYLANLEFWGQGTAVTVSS VL: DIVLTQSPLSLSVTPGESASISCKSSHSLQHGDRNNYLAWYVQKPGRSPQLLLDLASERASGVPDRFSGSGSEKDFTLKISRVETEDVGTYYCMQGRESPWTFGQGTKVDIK ?
Response: 0.265 µg/mL
